Tested on: Mus musculus
assay-method-text: Protection against LPS-induced death of D-galactosamine-sensitized mice (10 in number) at specified dose of 100 mg/kg on day 7
Format: functional
reported-property: Survival rate

Take a look at these entries with their results.
OCCN1C2Cc3cc4c(cc3C1Cc1cc3c(cc12)OCO3)OCO4 | 9 number of mice
CCCC(=O)N1C2Cc3cc4c(cc3C1Cc1cc3c(cc12)OCO3)OCO4 | 5 number of mice
CCOC(=O)CC(=O)N1C2Cc3cc4c(cc3C1Cc1cc3c(cc12)OCO3)OCO4 | 3 number of mice
O=CN1C2Cc3cc4c(cc3C1Cc1cc3c(cc12)OCO3)OCO4 | 7 number of mice
NCCN1C2Cc3cc4c(cc3C1Cc1cc3c(cc12)OCO3)OCO4 | 8 number of mice
CNC(=O)N1C2Cc3cc4c(cc3C1Cc1cc3c(cc12)OCO3)OCO4 | 6 number of mice
CCOC(=O)N1C2Cc3cc4c(cc3C1Cc1cc3c(cc12)OCO3)OCO4 | 3 number of mice
CC(=O)CCCCn1c(=O)c2c(ncn2C)n(C)c1=O | 4 number of mice

Hi there! I need Survival rate for each item below, if you can.
1. CCN1C2Cc3cc4c(cc3C1Cc1cc3c(cc12)OCO3)OCO4
2. CC(=O)N1C2Cc3cc4c(cc3C1Cc1cc3c(cc12)OCCO3)OCCO4

Response:
10 number of mice
7 number of mice
